Tested on: Staphylococcus aureus (MSSA)
Conditions: 24 h
Starred links: 1 amine or outer side, 2 acyl side, 3 side chain; linkers in the order of their positions; H or OH if unused. Positions of bridges follow the written chain, without caps; N, C: chain ends. Non-standard residues stand in square brackets, D forms with d. Residues, ends and D or L forms follow the SMILES beside them. ξ: configuration not given here. *: point of attachment. ξAbu(βξ-NH2) = CC(N[*:3])C(N[*:1])C(=O)[*:2]; Phac(3-amino) = O=C(Cc1cccc(N[*:1])c1)[*:2]; X23 = CC(NCc1ccc(O)cc1)C(N[*:1])C(=O)[*:2]; ξAbu(3ξ-NH-βAla) = CC(NC(=O)CCN)C(N)C(=O)O; Pentadecanoyl = CCCCCCCCCCCCCCC(=O)*; ξAsp(βξ-Me) = CC(C(=O)O)C(N)C(=O)O; ξAbu(3ξ-NH2) = CC(N)C(N)C(=O)O; Lauroyl = CCCCCCCCCCCC(=O)*; Octanoyl = CCCCCCCC(=O)*; Pip = O=C(O)[CH]1CCCCN1
RECORDED ENDPOINT: MIC

MOLECULE	MEASUREMENT
CCCCCCCCCCCCCCC(=O)NC(CC(=O)O)C(=O)NC1C(=O)N2CCCCC2C(=O)NC(C(C)C(=O)O)C(=O)NC(CC(=O)O)C(=O)NCC(=O)NC(CC(=O)O)C(=O)NCC(=O)NC(C(C)NC(=O)CCCCCCCCCCN)C(=O)NC(C(C)C)C(=O)N2CCCC2C(=O)NC1C (stereo not drawn) [Compound 34, C15-Amphomycin-9-C(═O)—(CH2)10—NH2]	32 to 64 µg/mL
CCCCCCCC(=O)Nc1cccc(CC(=O)NC(CC(=O)O)C(=O)NC2C(=O)N3CCCCC3C(=O)NC(C(C)C(=O)O)C(=O)NC(CC(=O)O)C(=O)NCC(=O)NC(CC(=O)O)C(=O)NCC(=O)NC(C(C)N)C(=O)NC(C(C)C)C(=O)N3CCCC3C(=O)NC2C)c1 (stereo not drawn) [Compound 361, C8-(M-Apa)-Amphomycin] (Octanoyl-[Phac(3-amino)]D[ξAbu(βξ-NH2)][Pip][ξAsp(βξ-Me)]DGDG[ξAbu(3ξ-NH2)]VP; lactam 3-C; configuration not given here)	>64 µg/mL
CCCCCCCCCCCCCCC(=O)NC(CC(=O)O)C(=O)NC1C(=O)N2CCCCC2C(=O)NC(C(C)C(=O)O)C(=O)NC(CC(=O)O)C(=O)NCC(=O)NC(CC(=O)O)C(=O)NCC(=O)NC(C(C)NC(=O)[C@@H](N)[C@@H](C)CC)C(=O)NC(C(C)C)C(=O)N2CCCC2C(=O)NC1C (stereo partly drawn) [Compound 36, C15-Amphomycin-9-Ile]	8 to 16 µg/mL
CCCCCCCCCCCC(=O)Nc1cccc(CC(=O)NC(CC(=O)O)C(=O)NC2C(=O)N3CCCCC3C(=O)NC(C(C)C(=O)O)C(=O)NC(CC(=O)O)C(=O)NCC(=O)NC(CC(=O)O)C(=O)NCC(=O)NC(C(C)N)C(=O)NC(C(C)C)C(=O)N3CCCC3C(=O)NC2C)c1 (stereo not drawn) [Compound 111, C12-(M-Apa)-Amphomycin] (Lauroyl-[Phac(3-amino)]D[ξAbu(βξ-NH2)][Pip][ξAsp(βξ-Me)]DGDG[ξAbu(3ξ-NH2)]VP; lactam 3-C; configuration not given here)	0.5 to 1 µg/mL
CCCCCCCCCCCCCCC(=O)NC(CC(=O)O)C(=O)NC1C(=O)N2CCCCC2C(=O)NC(C(C)C(=O)O)C(=O)NC(CC(=O)O)C(=O)NCC(=O)NC(CC(=O)O)C(=O)NCC(=O)NC(C(C)NCc2ccc(O)cc2)C(=O)NC(C(C)C)C(=O)N2CCCC2C(=O)NC1C (stereo not drawn) [Compound 266, C15-Amphomycin-9-(4-Hydroxybenzyl)] (Pentadecanoyl-D[ξAbu(βξ-NH2)][Pip][ξAsp(βξ-Me)]DGDG[X23]VP; lactam 2-C; configuration not given here)	8 to 16 µg/mL
CC(C)C1NC(=O)C(C(C)NC(=O)CCN)NC(=O)CNC(=O)C(CC(=O)O)NC(=O)CNC(=O)C(CC(=O)O)NC(=O)C(C(C)C(=O)O)NC(=O)C2CCCCN2C(=O)C(NC(=O)C(N)CC(=O)O)C(C)NC(=O)C2CCCN2C1=O (stereo not drawn) [Compound 355, Amphomycin-9-(β-Ala)] (H-D[ξAbu(βξ-NH2)][Pip][ξAsp(βξ-Me)]DGDG[ξAbu(3ξ-NH-βAla)]VP; lactam 2-C; configuration not given here)	>64 µg/mL

###

Test system: Staphylococcus aureus (MSSA)
Settings: 24 h
The following molecules are shown together with reported MIC values.
RECORDED ENDPOINT: MIC

MOLECULE	TARGET OR TEST SYSTEM	MEASUREMENT
CCCCCCCCCCCCCCC(=O)NC(CC(=O)O)C(=O)NC1C(=O)N2CCCCC2C(=O)NC(C(C)C(=O)O)C(=O)NC(CC(=O)O)C(=O)NCC(=O)NC(CC(=O)O)C(=O)NCC(=O)NC(C(C)NC(=O)CCCCCCCCCCCCCC)C(=O)NC(C(C)C)C(=O)N2CCCC2C(=O)NC1C (stereo not drawn)	Staphylococcus aureus (MSSA)	>64 µg/mL
CCCCCCCCCCOc1ccc(C(=O)NC(CC(=O)O)C(=O)NC2C(=O)N3CCCCC3C(=O)NC(C(C)C(=O)O)C(=O)NC(CC(=O)O)C(=O)NCC(=O)NC(CC(=O)O)C(=O)NCC(=O)NC(C(C)N)C(=O)NC(C(C)C)C(=O)N3CCCC3C(=O)NC2C)cc1 (stereo not drawn)	Staphylococcus aureus (MSSA)	0.5 to 1 µg/mL
CC(=O)Nc1ccc(C(=O)NC(CC(=O)O)C(=O)NC2C(=O)N3CCCCC3C(=O)NC(C(C)C(=O)O)C(=O)NC(CC(=O)O)C(=O)NCC(=O)NC(CC(=O)O)C(=O)NCC(=O)NC(C(C)N)C(=O)NC(C(C)C)C(=O)N3CCCC3C(=O)NC2C)cc1 (stereo not drawn)	Staphylococcus aureus (MSSA)	2 to 4 µg/mL

###

System: Staphylococcus aureus (MSSA)
Details: 24 h
Starred links: 1 amine or outer side, 2 acyl side, 3 side chain; linkers in the order of their positions; H or OH if unused. Positions of bridges follow the written chain, without caps; N, C: chain ends. Non-standard residues stand in square brackets, D forms with d. Residues, ends and D or L forms follow the SMILES beside them. ξ: configuration not given here. *: point of attachment. ξAbu(βξ-NH2) = CC(N[*:3])C(N[*:1])C(=O)[*:2]; Pentadecanoyl = CCCCCCCCCCCCCCC(=O)*; ξAsp(βξ-Me) = CC(C(=O)O)C(N)C(=O)O; ξAbu(3ξ-NH2) = CC(N)C(N)C(=O)O; X19 = CCCCCCCCCCS(=O)(=O)*; Pip = O=C(O)[CH]1CCCCN1; ξD = NC(CC(=O)O)C(=O)O; ξPip = O=C(O)C1CCCCN1; ξV = CC(C)C(N)C(=O)O; ξP = O=C(O)C1CCCN1
RECORDED ENDPOINT: MIC

COMPOUND	MEASUREMENT
CCCCCCCCCCS(=O)(=O)NCC(=O)NC(CC(=O)O)C(=O)NC1C(=O)N2CCCCC2C(=O)NC(C(C)C(=O)O)C(=O)NC(CC(=O)O)C(=O)NCC(=O)NC(CC(=O)O)C(=O)NCC(=O)NC(C(C)N)C(=O)NC(C(C)C)C(=O)N2CCCC2C(=O)NC1C (stereo not drawn) [Compound 269, CH3—(CH2)9—SO2-Gly-Amphomycin] (X19-GD[ξAbu(βξ-NH2)][Pip][ξAsp(βξ-Me)]DGDG[ξAbu(3ξ-NH2)]VP; lactam 3-C; configuration not given here)	4 to 8 µg/mL
CCCCCCCCCCCCCCC(=O)NC(CC(=O)O)C(=O)NC1C(=O)N2CCCCC2C(=O)NC(C(C)C(=O)O)C(=O)NC(CC(=O)O)C(=O)NCC(=O)NC(CC(=O)O)C(=O)NCC(=O)NC(C(C)NC(=O)[C@@H](N)CCC(N)=O)C(=O)NC(C(C)C)C(=O)N2CCCC2C(=O)NC1C (stereo partly drawn)	8 to 16 µg/mL
CCCCCCCCCCCCCCC(=O)NC(C)C1NC(=O)CNC(=O)C(CC(=O)O)NC(=O)CNC(=O)C(CC(=O)O)NC(=O)C(C(C)C(=O)O)NC(=O)C2CCCCN2C(=O)C(NC(=O)C(CC(=O)O)NC(=O)CNC(=O)[C@@H](N)CCCCN)C(C)NC(=O)C2CCCN2C(=O)C(C(C)C)NC1=O (stereo partly drawn) [Compound 331, Lys-Gly-Amphomycin-9-C15] (H-KG[ξD][ξAbu(βξ-NH2)][ξPip][ξAsp(βξ-Me)][ξD]G[ξD]G[ξAbu(βξ-NH2)](Pentadecanoyl)[ξV][ξP]; lactam 4-C)	>64 µg/mL

###

Test system: Staphylococcus aureus (MSSA)
Settings: 24 h
Starred links: 1 amine or outer side, 2 acyl side, 3 side chain; linkers in the order of their positions; H or OH if unused. Positions of bridges follow the written chain, without caps; N, C: chain ends. Non-standard residues stand in square brackets, D forms with d. Residues, ends and D or L forms follow the SMILES beside them. ξ: configuration not given here. *: point of attachment. X28 = CCCCCCCC(=O)Nc1cc(NC(=O)CCCCCCC)cc(C(=O)*)c1; ξAbu(βξ-NH2) = CC(N[*:3])C(N[*:1])C(=O)[*:2]; Phac(3-amino) = O=C(Cc1cccc(N[*:1])c1)[*:2]; Pentadecanoyl = CCCCCCCCCCCCCCC(=O)*; ξAsp(βξ-Me) = CC(C(=O)O)C(N)C(=O)O; ξAbu(3ξ-NH2) = CC(N)C(N)C(=O)O; Pip = O=C(O)[CH]1CCCCN1

COMPOUND	UNIT DESCRIPTOR	MIC
CCCCCCCCCCCCCCC(=O)Nc1cccc(CC(=O)NC(CC(=O)O)C(=O)NC2C(=O)N3CCCCC3C(=O)NC(C(C)C(=O)O)C(=O)NC(CC(=O)O)C(=O)NCC(=O)NC(CC(=O)O)C(=O)NCC(=O)NC(C(C)N)C(=O)NC(C(C)C)C(=O)N3CCCC3C(=O)NC2C)c1 (stereo not drawn) [Compound 310, C15-(M-Apa)-Amphomycin] (Pentadecanoyl-[Phac(3-amino)]D[ξAbu(βξ-NH2)][Pip][ξAsp(βξ-Me)]DGDG[ξAbu(3ξ-NH2)]VP; lactam 3-C; configuration not given here)	mg/L	1
CCCCCCCC(=O)Nc1cc(NC(=O)CCCCCCC)cc(C(=O)NC(CC(=O)O)C(=O)NC2C(=O)N3CCCCC3C(=O)NC(C(C)C(=O)O)C(=O)NC(CC(=O)O)C(=O)NCC(=O)NC(CC(=O)O)C(=O)NCC(=O)NC(C(C)N)C(=O)NC(C(C)C)C(=O)N3CCCC3C(=O)NC2C)c1 (stereo not drawn) [Compound 305] (X28-D[ξAbu(βξ-NH2)][Pip][ξAsp(βξ-Me)]DGDG[ξAbu(3ξ-NH2)]VP; lactam 2-C; configuration not given here)	mg/L	1
CCCCCCCCCCCCCCC(=O)NC(CC(=O)O)C(=O)NC1C(=O)N2CCCCC2C(=O)NC(C(C)C(=O)O)C(=O)NC(CC(=O)O)C(=O)NCC(=O)NC(CC(=O)O)C(=O)NCC(=O)NC(C(C)NC(=O)CNC(=O)[C@H](CCCCN)NC(=O)CN)C(=O)NC(C(C)C)C(=O)N2CCCC2C(=O)NC1C (stereo partly shown)	mg/L	1
